target_or_system: CDK2/CycE (Homo sapiens, UniProt P24941)
Construct: GST; purchased Proquinase Company, Freiburg; host or cells: baculovirus-infected insect cells (Sf9)
experimental_protocol: CDK2/CycE Kinase Assay
Format: biochemical
measurement_parameters: read-out: Inhibition IC50 CDK2/CycE
measurement_type: IC50 (nM)

Sample records with IC50:
Observed IC50, CDK2/CycE (Homo sapiens, UniProt P24941), NS(=O)(=O)c1ccc(Nc2ncc(Br)c(SCCCCO)n2)cn1 [Example 1.21] : 30

Observed IC50, CDK2/CycE (Homo sapiens, UniProt P24941), CC(CO)N(C)c1nc(Nc2ccc(S(N)(=O)=O)nc2)ncc1Br (stereo not drawn) [Example 3.3] : 36

Observed IC50, CDK2/CycE (Homo sapiens, UniProt P24941), CC(O)C(C)Nc1nc(Nc2ccc(S(N)(=O)=O)nc2)ncc1Br (stereo not drawn) [Example 1.12] : 22

Observed IC50, CDK2/CycE (Homo sapiens, UniProt P24941), CC(Nc1nc(Nc2ccc(S(N)(=O)=O)nc2)ncc1Br)C(C)(C)O (stereo not drawn) [Example 3.4] : 58

Observed IC50, CDK2/CycE (Homo sapiens, UniProt P24941), NS(=O)(=O)c1ccc(Nc2ncc(Br)c(NC3CCCCC3)n2)cn1 [Example 3.12] : 20

(P) CC(Nc1nc(Nc2ccc(S(N)(=O)=O)nc2)ncc1Br)C(C)NC1CC1 (stereo not drawn) [Example 6.0]
(Q) CC(C)[C@H](CO)Nc1nc(Nc2csc(S(N)(=O)=O)c2)ncc1Br [Example 1.9]
q: Which has the higher IC50, P or Q ? Answer by stating the label of the chosen item.
a: Q
(Q: 50 nM, P: 25 nM)

====

Test system: MCF7
experimental_protocol: Proliferation Assay (crystal violet)
Assay type: cell-based, human
measurement_parameters: MCF7 cells, 4 days incubation; read-out: Proliferation IC50 MCF7
Procedure: Cultivated human tumor cells (as indicated) were flattened out at a density of 5000 cells/measuring point in a 96-well multititer plate in 200 μl of the corresponding growth medium. […] The cell proliferation was determined by coloring the cells with crystal violet: the cells were fixed by adding 20 μl/measuring point of a 11% glutaric aldehyde solution for 15 minutes at room temperature. […] The extinction was determined by photometry at a wavelength of 595 nm. […]
pIC50: −log10 of the molar value.
measurement_type: pIC50

C[C@@H](O)[C@@H](C)Nc1nc(Nc2ccc(S(N)(=O)=O)nc2)ncc1Br has a reported pIC50 of > 7.00

====

target_or_system: CDK2/CycE (Homo sapiens, UniProt P24941)
Construct: GST; purchased Proquinase Company, Freiburg; host or cells: baculovirus-infected insect cells (Sf9)
experimental_protocol: CDK2/CycE Kinase Assay
Format: biochemical
measurement_parameters: comparison with known reference compounds; read-out: CDK2/CycE IC50
measurement_type: IC50 (nM)
Numeric answer only, unit nM assumed.

CC(C)[C@H](CO)Nc1nc(Nc2cccc(Cl)c2)c2ncn(C(C)C)c2n1 [Purvalanol A, reference compound] has a reported IC50 of 10

====

target_or_system: CDK2/CycE (Homo sapiens, UniProt P24941)
Construct: GST; purchased Proquinase Company, Freiburg; host or cells: baculovirus-infected insect cells (Sf9)
experimental_protocol: CDK2/CycE Kinase Assay
Format: biochemical
measurement_parameters: read-out: Inhibition IC50 CDK2/CycE
pIC50: −log10 of the molar value.
measurement_type: pIC50

Sample records with pIC50:
Observed pIC50, CDK2/CycE (Homo sapiens, UniProt P24941), CC1CCCCC1Nc1nc(Nc2ccc(S(N)(=O)=O)nc2)ncc1Br (stereo not drawn) : 7.80

Observed pIC50, CDK2/CycE (Homo sapiens, UniProt P24941), C[C@@H](O)[C@@H](C)Nc1nc(Nc2ccc(S(N)(=O)=O)nc2)ncc1Br [Example 1.13] : 8.10

Observed pIC50, CDK2/CycE (Homo sapiens, UniProt P24941), CC(C)[C@H](CO)Nc1nc(Nc2ccc(S(N)(=O)=O)nc2)ncc1Br : 7.40

(a) CC(=O)C(C)Nc1nc(Nc2ccc(S(N)(=O)=O)nc2)ncc1Br (stereo not drawn)
(b) C[C@H](CO)Nc1nc(Nc2ccc(S(N)(=O)=O)nc2)ncc1Br
(c) CC(C)[C@H](CO)Nc1nc(Nc2cc(S(N)(=O)=O)sc2Cl)ncc1Br
q: Put the items in sequence by pIC50, from largest down. List the labels in the requested order.
a: b, a, c
